Molecular target: lin-31 (K10G6.1) (Caenorhabditis elegans)
Sequence: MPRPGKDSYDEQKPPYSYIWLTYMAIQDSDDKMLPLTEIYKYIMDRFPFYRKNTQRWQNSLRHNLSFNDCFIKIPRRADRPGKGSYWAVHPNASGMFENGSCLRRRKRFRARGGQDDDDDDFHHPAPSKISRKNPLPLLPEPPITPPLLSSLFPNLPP
REPORTED ENDPOINT: binding signal (PBM E-score (-0.5 to 0.5))

>>> value("TGTAAACA (double strand) [8-mer TGTAAACA]")
0.476
>>> value("TAAACAAA (double strand) [8-mer TAAACAAA]")
0.473
>>> value("TATTTACA (double strand) [8-mer TATTTACA]")
0.474
>>> value("GTAAACAA (double strand) [8-mer GTAAACAA]")
0.47

* * *

Test system: ztf-14 (M163.2) (Caenorhabditis elegans)
Sequence: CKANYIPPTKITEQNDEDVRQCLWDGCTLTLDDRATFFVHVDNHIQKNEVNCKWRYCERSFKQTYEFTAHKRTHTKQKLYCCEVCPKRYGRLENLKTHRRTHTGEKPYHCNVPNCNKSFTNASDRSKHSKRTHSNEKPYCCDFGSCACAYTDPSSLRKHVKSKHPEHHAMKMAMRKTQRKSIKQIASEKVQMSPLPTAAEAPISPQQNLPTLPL
REPORTED ENDPOINT: binding signal (PBM E-score (-0.5 to 0.5))

>>> value("GACCACCA (double strand) [8-mer GACCACCA]")
0.454
>>> value("AGGGTAAA (double strand) [8-mer AGGGTAAA]")
0.46
>>> value("AGACCACC (double strand) [8-mer AGACCACC]")
0.494
>>> value("GACCTCCC (double strand) [8-mer GACCTCCC]")
0.479
>>> value("AGGTGGTC (double strand) [8-mer AGGTGGTC]")
0.475
>>> value("GGACCACC (double strand) [8-mer GGACCACC]")
0.495
>>> value("GACCCCCC (double strand) [8-mer GACCCCCC]")
0.478
>>> value("GACCACAC (double strand) [8-mer GACCACAC]")
0.488
>>> value("GGCCACCC (double strand) [8-mer GGCCACCC]")
0.494
>>> value("ACCACCCT (double strand) [8-mer ACCACCCT]")
0.463
>>> value("GACCACCC (double strand) [8-mer GACCACCC]")
0.499

* * *

Target: lin-29 (W03C9.4) (Caenorhabditis elegans) (UniProt G5EGB2)
Sequence: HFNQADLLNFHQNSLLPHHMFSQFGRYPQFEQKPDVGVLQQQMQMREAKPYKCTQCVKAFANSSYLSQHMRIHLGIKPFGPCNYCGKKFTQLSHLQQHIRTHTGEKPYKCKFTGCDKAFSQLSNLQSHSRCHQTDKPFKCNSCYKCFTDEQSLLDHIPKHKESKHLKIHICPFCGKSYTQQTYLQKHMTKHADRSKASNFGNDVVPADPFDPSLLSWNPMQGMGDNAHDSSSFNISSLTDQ
binding signal (PBM E-score (-0.5 to 0.5)) overview
REPORTED ENDPOINT: binding signal (PBM E-score (-0.5 to 0.5))

>>> value("CAAAAAAA (double strand) [8-mer CAAAAAAA]")
0.496
>>> value("GAAAAAAA (double strand) [8-mer GAAAAAAA]")
0.495
>>> value("TATAAAAA (double strand) [8-mer TATAAAAA]")
0.494
>>> value("AAAAAAAA (double strand) [8-mer AAAAAAAA]")
0.499
>>> value("TAAAAAAA (double strand) [8-mer TAAAAAAA]")
0.498
>>> value("CATAAAAA (double strand) [8-mer CATAAAAA]")
0.494

* * *

Biological target: bed-3 (F25H8.6) (Caenorhabditis elegans)
Sequence: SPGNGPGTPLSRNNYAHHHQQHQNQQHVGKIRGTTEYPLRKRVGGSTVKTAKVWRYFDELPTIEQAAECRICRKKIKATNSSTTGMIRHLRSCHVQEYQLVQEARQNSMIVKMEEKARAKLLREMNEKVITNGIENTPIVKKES
REPORTED ENDPOINT: binding signal (PBM E-score (-0.5 to 0.5))

>>> value("GGTCTCGA (double strand) [8-mer GGTCTCGA]")
0.491
>>> value("GATCTCGA (double strand) [8-mer GATCTCGA]")
0.493
>>> value("ACTCTCGA (double strand) [8-mer ACTCTCGA]")
0.49
>>> value("ACTCCCGA (double strand) [8-mer ACTCCCGA]")
0.49
>>> value("CTCGAGAC (double strand) [8-mer CTCGAGAC]")
0.497
>>> value("TCTCGAGA (double strand) [8-mer TCTCGAGA]")
0.499
>>> value("CTCGAGAG (double strand) [8-mer CTCGAGAG]")
0.493
>>> value("GCTCTCGA (double strand) [8-mer GCTCTCGA]")
0.491
>>> value("AGTCTCGA (double strand) [8-mer AGTCTCGA]")
0.494
>>> value("TCCCGGGA (double strand) [8-mer TCCCGGGA]")
0.491
>>> value("CCTCGAGA (double strand) [8-mer CCTCGAGA]")
0.492

* * *

Let's go through some recorded binding signal (PBM E-score (-0.5 to 0.5)) values for ceh-37 (C37E2.5) (Caenorhabditis elegans) together.
REPORTED ENDPOINT: binding signal (PBM E-score (-0.5 to 0.5))

>>> value("TAATCCGA (double strand) [8-mer TAATCCGA]")
0.489
>>> value("AGGGATTA (double strand) [8-mer AGGGATTA]")
0.487
>>> value("GATAATCC (double strand) [8-mer GATAATCC]")
0.491
>>> value("GGATTAAA (double strand) [8-mer GGATTAAA]")
0.488
>>> value("CGGATTAA (double strand) [8-mer CGGATTAA]")
0.492
>>> value("ACGGATTA (double strand) [8-mer ACGGATTA]")
0.487
>>> value("GGGATTAA (double strand) [8-mer GGGATTAA]")
0.493
>>> value("GGGGATTA (double strand) [8-mer GGGGATTA]")
0.494
>>> value("AAGGATTA (double strand) [8-mer AAGGATTA]")
0.493
>>> value("GGATTAAC (double strand) [8-mer GGATTAAC]")
0.492
>>> value("ATTAATCC (double strand) [8-mer ATTAATCC]")
0.492

* * *

Target: Y67D8A.3 (Y67D8A.3) (Caenorhabditis elegans) (UniProt Q95XU1)
Sequence: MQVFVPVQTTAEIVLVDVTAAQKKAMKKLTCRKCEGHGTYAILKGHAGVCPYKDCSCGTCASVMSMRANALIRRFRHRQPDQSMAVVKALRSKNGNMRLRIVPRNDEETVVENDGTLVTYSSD
REPORTED ENDPOINT: binding signal (PBM E-score (-0.5 to 0.5))

>>> value("AAAGGTCA (double strand) [8-mer AAAGGTCA]")
0.493
>>> value("GAAAGGTC (double strand) [8-mer GAAAGGTC]")
0.461
>>> value("AAAGGTTG (double strand) [8-mer AAAGGTTG]")
0.454
>>> value("AAAAGGTC (double strand) [8-mer AAAAGGTC]")
0.456

* * *

Target: T07C12.11 (T07C12.11) (Caenorhabditis elegans) (UniProt G5EGG9)
Sequence: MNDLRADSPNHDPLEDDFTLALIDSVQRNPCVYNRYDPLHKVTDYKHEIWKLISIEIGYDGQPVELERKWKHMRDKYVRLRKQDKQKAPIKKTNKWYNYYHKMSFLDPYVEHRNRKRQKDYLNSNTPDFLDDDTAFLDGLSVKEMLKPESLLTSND
REPORTED ENDPOINT: binding signal (PBM E-score (-0.5 to 0.5))

>>> value("TTACGCAA (double strand) [8-mer TTACGCAA]")
0.494
>>> value("GTTACGTA (double strand) [8-mer GTTACGTA]")
0.49
>>> value("ACGTAAGG (double strand) [8-mer ACGTAAGG]")
0.488
>>> value("ACGTAAGC (double strand) [8-mer ACGTAAGC]")
0.487
>>> value("ATTACGTA (double strand) [8-mer ATTACGTA]")
0.485
>>> value("CTTGCGTA (double strand) [8-mer CTTGCGTA]")
0.487

* * *

Target: nhr-122 (Y41D4B.9) (Caenorhabditis elegans) (UniProt Q95Y09)
Sequence: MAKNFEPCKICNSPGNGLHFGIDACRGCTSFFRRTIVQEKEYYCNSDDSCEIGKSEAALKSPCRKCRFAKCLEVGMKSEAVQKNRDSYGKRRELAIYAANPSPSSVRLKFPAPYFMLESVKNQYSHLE
binding signal (PBM E-score (-0.5 to 0.5)) overview
REPORTED ENDPOINT: binding signal (PBM E-score (-0.5 to 0.5))

>>> value("ATACTCCA (double strand) [8-mer ATACTCCA]")
0.456
>>> value("AGACTCCA (double strand) [8-mer AGACTCCA]")
0.457
>>> value("ACTCCAAT (double strand) [8-mer ACTCCAAT]")
0.464
>>> value("GACTCCAA (double strand) [8-mer GACTCCAA]")
0.459
>>> value("TACTCCAA (double strand) [8-mer TACTCCAA]")
0.459
